Sourced from ChEMBL document CHEMBL1142175

For each record, write down the corresponding MBC.
system: Mycoplasma pulmonis; test: Antibacterial activity against 10^6 CFU/ml Mycoplasma pulmonis MpUR1.1 assessed as viable cell count after 2 hrs; assay type: functional; conditions: Mycoplasmopsis pulmonis
Starred links: 1 amine or outer side, 2 acyl side, 3 side chain; linkers in the order of their positions; H or OH if unused. Positions of bridges follow the written chain, without caps; N, C: chain ends. Non-standard residues stand in square brackets, D forms with d. Residues, ends and D or L forms follow the SMILES beside them. X1 = CC(C)CCCCCCCCC[C@H](CC(=O)[*:1])O[*:2]; Orn = NCCC[C@H](N)C(=O)O
Report only the number, with the unit mg/L understood.

**Q:** Look at this molecule and give its reported MBC. CCCCCC[C@H]1OC(=O)CNC(=O)[C@H]([C@H](C)O)NC(=O)[C@H](CO)NC(=O)[C@H]([C@H](C)CC)NC(=O)[C@H](CC(C)C)N(C)C(=O)[C@@H]1C
**A:** 8.2

**Q:** Item CC(C)C[C@@H]1NC(=O)[C@H](CCCN)NC(=O)[C@H](C(C)C)NC(=O)[C@@H]2CCCN2C(=O)[C@@H](Cc2ccccc2)NC(=O)[C@H](CC(C)C)NC(=O)[C@H](CCCN)NC(=O)[C@H](C(C)C)NC(=O)[C@@H]2CCCN2C(=O)[C@@H](Cc2ccccc2)NC1=O [GRAMICIDIN S] (cyclo(L[dF]PV[Orn]L[dF]PV[Orn])) has what recorded MBC?
**A:** 7.1

**Q:** Look up MBC: CC(C)CCCCCCCCC[C@@H]1CC(=O)N[C@@H](CCC(=O)O)C(=O)N[C@@H](CC(C)C)C(=O)N[C@H](CC(C)C)C(=O)N[C@@H](C(C)C)C(=O)N[C@@H](CC(=O)O)C(=O)N[C@H](CC(C)C)C(=O)N[C@@H](CC(C)C)C(=O)O1 [SURFACTIN] (EL[dL]VD[dL]L; linker N-C via X1)
**A:** 104

**Q:** Which MBC value belongs to CC(=O)NC(C)(C)C(=O)N1CCC[C@H]1C(=O)NC(C)(C)C(=O)N[C@@H](C)C(=O)NC(C)(C)C(=O)N[C@@H](C)C(=O)N[C@@H](CCC(N)=O)C(=O)NC(C)(C)C(=O)N[C@H](C(=O)NC(C)(C)C(=O)NCC(=O)N[C@@H](CC(C)C)C(=O)NC(C)(C)C(=O)N1CCC[C@H]1C(=O)N[C@H](C(=O)NC(C)(C)C(=O)NC(C)(C)C(=O)N[C@@H](CCC(=O)O)C(=O)N[C@@H](CCC(N)=O)C(=O)N[C@H](CO)Cc1ccccc1)C(C)C)C(C)C [ALAMETHICIN] ?
**A:** 49.1
